Property: CC50 at 48 h; scope: individual compounds
assay: MTS tetrazolium reduction cell viability assay; conditions: rat, rat mesangial cells (1097/IRMC cells), TGF-β1 stimulated, CC50 (μM), vs 1% DMSO vehicle
Please give a number only; it is taken to be in µM.

Q: Recorded CC50 at 48 h of `C#CCOc1ccc(/C=C/C(=O)Nc2ccccc2C)cc1OC` , please.
A: 369

Q: Recorded CC50 at 48 h of `C#CCOc1ccc(/C=C/C(=O)Nc2ccccc2C#N)c(OC2CN(C)C2)c1OC` , please.
A: 23.4

Q: Recorded CC50 at 48 h of `COc1cc(/C=C/C(=O)Nc2ccccc2C(=O)O)ccc1OCc1c(C)noc1C` , please.
A: 140

Q: Recorded CC50 at 48 h of `C#CCOc1ccc(/C=C/C(=O)Nc2ccccc2C(=O)NCc2ccccn2)cc1OC` , please.
A: 341

Q: Recorded CC50 at 48 h of `C#CCOCc1cc(/C=C/C(=O)Nc2ccccc2C(=O)O)ccc1OC` , please.
A: 116

Q: Recorded CC50 at 48 h of COc1cc(C2CC2C(=O)Nc2ccc(C#N)cc2)ccc1OC1CCN(C)C1 (stereo not drawn) , please.
A: 30.8

Q: Recorded CC50 at 48 h of `COc1cccc(/C=C/C(=O)Nc2ccccc2C#N)c1OCCN(C)C` , please.
A: 109

Q: Recorded CC50 at 48 h of `C#CCOc1ccc(/C=C/C(=O)Nc2ccccc2C#N)c(OC2CCN(C)CC2)c1OC` , please.
A: 19.8
